Attribution: BigSolDB 2.1

# Conditions used: in n-hexanol, 283.15 K
Endpoint: solubility (mole fraction)

CCCCN(CCCC)CC(O)c1cc(Cl)cc2c1-c1ccc(Cl)cc1/C2=C/c1ccc(Cl)cc1 (stereo unspecified) :: 0.000315

###

# Conditions used: in n-propyl acetate, 298.15 K
Endpoint: solubility (mole fraction)

CCCCN(CCCC)CC(O)c1cc(Cl)cc2c1-c1ccc(Cl)cc1/C2=C/c1ccc(Cl)cc1 (stereo unspecified) :: 0.00838

###

# Conditions used: in n-butanol, 283.15 K
Endpoint: solubility (mole fraction)

CCCCN(CCCC)CC(O)c1cc(Cl)cc2c1-c1ccc(Cl)cc1/C2=C/c1ccc(Cl)cc1 (stereo unspecified) :: 0.000182

###

# Conditions used: in n-pentyl acetate, 323.15 K
Endpoint: solubility (mole fraction)

CCCCN(CCCC)CC(O)c1cc(Cl)cc2c1-c1ccc(Cl)cc1/C2=C/c1ccc(Cl)cc1 (stereo unspecified) :: 0.0406

###

# Conditions used: in n-hexanol, 298.15 K
Endpoint: solubility (mole fraction)

CCCCN(CCCC)CC(O)c1cc(Cl)cc2c1-c1ccc(Cl)cc1/C2=C/c1ccc(Cl)cc1 (stereo unspecified) :: 0.000886

###

# Conditions used: in methyl acetate, 303.15 K
Endpoint: solubility (mole fraction)

CCCCN(CCCC)CC(O)c1cc(Cl)cc2c1-c1ccc(Cl)cc1/C2=C/c1ccc(Cl)cc1 (stereo unspecified) :: 0.00364

###

# Conditions used: in n-propanol, 303.15 K
Endpoint: solubility (mole fraction)

CCCCN(CCCC)CC(O)c1cc(Cl)cc2c1-c1ccc(Cl)cc1/C2=C/c1ccc(Cl)cc1 (stereo unspecified) :: 0.000388

###

# Conditions used: in ethyl acetate, 278.15 K
Endpoint: solubility (mole fraction)

CCCCN(CCCC)CC(O)c1cc(Cl)cc2c1-c1ccc(Cl)cc1/C2=C/c1ccc(Cl)cc1 (stereo unspecified) :: 0.00178

###

# Conditions used: in n-heptanol, 323.15 K
Endpoint: solubility (mole fraction)

CCCCN(CCCC)CC(O)c1cc(Cl)cc2c1-c1ccc(Cl)cc1/C2=C/c1ccc(Cl)cc1 (stereo unspecified) :: 0.0045

###

# Conditions used: in methyl acetate, 298.15 K
Endpoint: solubility (mole fraction)

CCCCN(CCCC)CC(O)c1cc(Cl)cc2c1-c1ccc(Cl)cc1/C2=C/c1ccc(Cl)cc1 (stereo unspecified) :: 0.00262

###

# Conditions used: in n-propanol, 318.15 K
Endpoint: solubility (mole fraction)

CCCCN(CCCC)CC(O)c1cc(Cl)cc2c1-c1ccc(Cl)cc1/C2=C/c1ccc(Cl)cc1 (stereo unspecified) :: 0.000967

###

# Conditions used: in n-octanol, 298.15 K
Endpoint: solubility (mole fraction)

CCCCN(CCCC)CC(O)c1cc(Cl)cc2c1-c1ccc(Cl)cc1/C2=C/c1ccc(Cl)cc1 (stereo unspecified) :: 0.00125

###

# Conditions used: in n-pentyl acetate, 308.15 K
Endpoint: solubility (mole fraction)

CCCCN(CCCC)CC(O)c1cc(Cl)cc2c1-c1ccc(Cl)cc1/C2=C/c1ccc(Cl)cc1 (stereo unspecified) :: 0.0211

###

# Conditions used: in n-hexanol, 278.15 K
Endpoint: solubility (mole fraction)

CCCCN(CCCC)CC(O)c1cc(Cl)cc2c1-c1ccc(Cl)cc1/C2=C/c1ccc(Cl)cc1 (stereo unspecified) :: 0.00021

###

# Conditions used: in n-octanol, 303.15 K
Endpoint: solubility (mole fraction)

CCCCN(CCCC)CC(O)c1cc(Cl)cc2c1-c1ccc(Cl)cc1/C2=C/c1ccc(Cl)cc1 (stereo unspecified) :: 0.00172

###

# Conditions used: in n-butyl acetate, 283.15 K
Endpoint: solubility (mole fraction)

CCCCN(CCCC)CC(O)c1cc(Cl)cc2c1-c1ccc(Cl)cc1/C2=C/c1ccc(Cl)cc1 (stereo unspecified) :: 0.00531

###

# Conditions used: in ethanol, 293.15 K
Endpoint: solubility (mole fraction)

CCCCN(CCCC)CC(O)c1cc(Cl)cc2c1-c1ccc(Cl)cc1/C2=C/c1ccc(Cl)cc1 (stereo unspecified) :: 0.000127

###

# Conditions used: in methanol, 298.15 K
Endpoint: solubility (mole fraction)

CCCCN(CCCC)CC(O)c1cc(Cl)cc2c1-c1ccc(Cl)cc1/C2=C/c1ccc(Cl)cc1 (stereo unspecified) :: 3.81e-05

###

# Conditions used: in n-propyl acetate, 288.15 K
Endpoint: solubility (mole fraction)

CCCCN(CCCC)CC(O)c1cc(Cl)cc2c1-c1ccc(Cl)cc1/C2=C/c1ccc(Cl)cc1 (stereo unspecified) :: 0.00485

###

# Conditions used: in n-propanol, 323.15 K
Endpoint: solubility (mole fraction)

CCCCN(CCCC)CC(O)c1cc(Cl)cc2c1-c1ccc(Cl)cc1/C2=C/c1ccc(Cl)cc1 (stereo unspecified) :: 0.00131

###

# Conditions used: in n-heptanol, 278.15 K
Endpoint: solubility (mole fraction)

CCCCN(CCCC)CC(O)c1cc(Cl)cc2c1-c1ccc(Cl)cc1/C2=C/c1ccc(Cl)cc1 (stereo unspecified) :: 0.000337

###

# Conditions used: in n-butanol, 303.15 K
Endpoint: solubility (mole fraction)

CCCCN(CCCC)CC(O)c1cc(Cl)cc2c1-c1ccc(Cl)cc1/C2=C/c1ccc(Cl)cc1 (stereo unspecified) :: 0.00065

###

# Conditions used: in n-heptanol, 308.15 K
Endpoint: solubility (mole fraction)

CCCCN(CCCC)CC(O)c1cc(Cl)cc2c1-c1ccc(Cl)cc1/C2=C/c1ccc(Cl)cc1 (stereo unspecified) :: 0.00193

###

# Conditions used: in n-pentyl acetate, 288.15 K
Endpoint: solubility (mole fraction)

CCCCN(CCCC)CC(O)c1cc(Cl)cc2c1-c1ccc(Cl)cc1/C2=C/c1ccc(Cl)cc1 (stereo unspecified) :: 0.00846

###

# Conditions used: in methanol, 293.15 K
Endpoint: solubility (mole fraction)

CCCCN(CCCC)CC(O)c1cc(Cl)cc2c1-c1ccc(Cl)cc1/C2=C/c1ccc(Cl)cc1 (stereo unspecified) :: 3.03e-05

###

# Conditions used: in n-propyl acetate, 308.15 K
Endpoint: solubility (mole fraction)

CCCCN(CCCC)CC(O)c1cc(Cl)cc2c1-c1ccc(Cl)cc1/C2=C/c1ccc(Cl)cc1 (stereo unspecified) :: 0.0139

###

# Conditions used: in n-pentyl acetate, 313.15 K
Endpoint: solubility (mole fraction)

CCCCN(CCCC)CC(O)c1cc(Cl)cc2c1-c1ccc(Cl)cc1/C2=C/c1ccc(Cl)cc1 (stereo unspecified) :: 0.0252

###

# Conditions used: in methyl acetate, 323.15 K
Endpoint: solubility (mole fraction)

CCCCN(CCCC)CC(O)c1cc(Cl)cc2c1-c1ccc(Cl)cc1/C2=C/c1ccc(Cl)cc1 (stereo unspecified) :: 0.0126

###

# Conditions used: in n-heptanol, 293.15 K
Endpoint: solubility (mole fraction)

CCCCN(CCCC)CC(O)c1cc(Cl)cc2c1-c1ccc(Cl)cc1/C2=C/c1ccc(Cl)cc1 (stereo unspecified) :: 0.000781

###

# Conditions used: in n-hexanol, 308.15 K
Endpoint: solubility (mole fraction)

CCCCN(CCCC)CC(O)c1cc(Cl)cc2c1-c1ccc(Cl)cc1/C2=C/c1ccc(Cl)cc1 (stereo unspecified) :: 0.00171

###

# Conditions used: in n-butanol, 288.15 K
Endpoint: solubility (mole fraction)

CCCCN(CCCC)CC(O)c1cc(Cl)cc2c1-c1ccc(Cl)cc1/C2=C/c1ccc(Cl)cc1 (stereo unspecified) :: 0.000281

###

# Conditions used: in methanol, 283.15 K
Endpoint: solubility (mole fraction)

CCCCN(CCCC)CC(O)c1cc(Cl)cc2c1-c1ccc(Cl)cc1/C2=C/c1ccc(Cl)cc1 (stereo unspecified) :: 1.7e-05

###

# Conditions used: in n-octanol, 283.15 K
Endpoint: solubility (mole fraction)

CCCCN(CCCC)CC(O)c1cc(Cl)cc2c1-c1ccc(Cl)cc1/C2=C/c1ccc(Cl)cc1 (stereo unspecified) :: 0.000474

###

# Conditions used: in n-butanol, 298.15 K
Endpoint: solubility (mole fraction)

CCCCN(CCCC)CC(O)c1cc(Cl)cc2c1-c1ccc(Cl)cc1/C2=C/c1ccc(Cl)cc1 (stereo unspecified) :: 0.000493

###

# Conditions used: in n-butanol, 278.15 K
Endpoint: solubility (mole fraction)

CCCCN(CCCC)CC(O)c1cc(Cl)cc2c1-c1ccc(Cl)cc1/C2=C/c1ccc(Cl)cc1 (stereo unspecified) :: 0.000137

###

# Conditions used: in n-hexanol, 293.15 K
Endpoint: solubility (mole fraction)

CCCCN(CCCC)CC(O)c1cc(Cl)cc2c1-c1ccc(Cl)cc1/C2=C/c1ccc(Cl)cc1 (stereo unspecified) :: 0.000604

###

# Conditions used: in n-pentanol, 278.15 K
Endpoint: solubility (mole fraction)

CCCCN(CCCC)CC(O)c1cc(Cl)cc2c1-c1ccc(Cl)cc1/C2=C/c1ccc(Cl)cc1 (stereo unspecified) :: 0.000215

###

# Conditions used: in n-pentanol, 283.15 K
Endpoint: solubility (mole fraction)

CCCCN(CCCC)CC(O)c1cc(Cl)cc2c1-c1ccc(Cl)cc1/C2=C/c1ccc(Cl)cc1 (stereo unspecified) :: 0.00028
